Values were extracted from PubChem BioAssay (NCI).

- Tested on: SNB-19 CNS
- Assay notes: NCI tumour cell line growth inhibition, 48 h
Readout name: TGI

Solved entries:
Compound: CN1C(=O)N(c2ccccc2)C2(CCN(CC3COc4ccccc4O3)CC2)C1=O (configuration not stated)
Result: 56.6 µM
//
Compound: Cc1ccc(-c2c(C#N)c(-c3ccccc3)n(NS(=O)(=O)c3ccccc3)c(=O)c2C#N)cc1
Result: > 100 µM
//
Compound: COC(=O)CC(C(C(=O)OC)C(=O)OC)N1C(=O)OCC1c1ccccc1 (configuration not stated)
Result: > 100 µM
//
Compound: COCOC1/C=C/CCCC#C[C@H](C)C(=O)CC1 (some centres not stated)
Result: 32.6 µM
//
Compound: COc1cc(O)c(/C=N/N=C(\N)NO)c(OC)c1
Result: > 10 µM
//
Compound: O=C(O)CC/C(=N\Nc1nsc2ccccc12)c1ccccc1
Result: > 100 µM

Lab note: `Cc1nn(CN2CCN(C)CC2)c(=S)n1/N=C/c1cccc2ccccc12` gave TGI of 51.6 µM

Lab note: `COc1cccc(/C=N/NC(=O)c2ccccc2Nc2ccnc(C(F)(F)F)c2)c1O` gave TGI of > 100 µM

Lab note: COc1ccc(OC)c(NC(=O)C(=O)C(C(C)=O)c2nc3ccc(Cl)cc3[nH]c2=O)c1 (configuration not stated) gave TGI of > 50 µM

Lab note: O=C(O)CCCCC(CCSCc1ccccc1)SCc1ccccc1 (configuration not stated) gave TGI of > 100 µM

Lab note: `Oc1ccc(/C=C/c2cc(O)cc(O)c2)cc1` gave TGI of > 100 µM

Lab note: `C#CCCCCC#Cc1ccccc1C(=O)OC` gave TGI of > 100 µM

====

Reported TGI values for the following compounds.
- Test system: A549 NSCLC
- Assay notes: NCI tumour cell line growth inhibition, 48 h

Solved entries:
Compound: COc1ccc(C2CC(c3c(O)ccc4ccccc34)=NN2c2ccc([N+](=O)[O-])cc2[N+](=O)[O-])cc1OC (stereo not given)
Target or system: A549 NSCLC
Readout name: TGI
Result: 98.3 µM
--
Compound: COc1ccc2[nH]c3c(C)c4c(c(C)c3c2c1)CN(C)CC4
Target or system: A549 NSCLC
Readout name: TGI
Result: 33.9 µM
--
Compound: Nc1nc2cc3nc(N)c(N)nc3cc2nc1N
Target or system: A549 NSCLC
Readout name: TGI
Result: > 100 µM
--
Compound: COc1ccc(CNc2cc(OC)c(OC)c(OC)c2)cc1
Target or system: A549 NSCLC
Readout name: TGI
Result: > 100 µM
--
Compound: CN(C)CCNc1cc(-c2ccccc2)nc2ccccc12
Target or system: A549 NSCLC
Readout name: TGI
Result: 43.5 µM
--
Compound: CNC(=O)OCc1c(COC(=O)NC)c(-c2ccc(Cl)c(Cl)c2)n2c1SCC2
Target or system: A549 NSCLC
Readout name: TGI
Result: > 88 µM
--
Compound: Cc1ccc(-c2c(C#N)c(-c3ccccc3)n(NS(=O)(=O)c3ccccc3)c(=O)c2C#N)cc1
Target or system: A549 NSCLC
Readout name: TGI
Result: > 100 µM
--
Compound: Cc1nc2cccc([N+](=O)[O-])c2c(NCCCN(C)C)c1C
Target or system: A549 NSCLC
Readout name: TGI
Result: > 100 µM
--
Compound: N.N.N.O=[N+]([O-])[O-].O=[N+]([O-])[O-].O=[N+]([O-])[O-].O=[N+]([O-])[O-].[Co+3]
Target or system: A549 NSCLC
Readout name: TGI
Result: > 100 µM

Lab note: `CCN(CC)c1c(C(=O)/C=C/c2ccccc2)c(-c2ccccc2)nn(C)c1=O` gave TGI of > 100 µM

====

Reported GI50 values for the following compounds.
- System: RXF 393 renal
- Assay notes: NCI tumour cell line growth inhibition, 48 h

Compound: O=C(O)CCCCC(CCSCc1ccccc1)SCc1ccccc1 (stereo not given)
Target or system: RXF 393 renal
GI50: 27.3 µM

Compound: C=C(CN1CCc2ccccc2C1)c1ccc(C(=O)Nc2cnccn2)cc1
Target or system: RXF 393 renal
GI50: 39 µM

Compound: COc1cc(/C=C/c2cc(/C=C/c3ccc(O)c(OC)c3)n(-c3ccccc3)n2)ccc1O
Target or system: RXF 393 renal
GI50: 0.258 µM

Compound: COc1cc(OC)cc(-c2ccc(-c3ccc(C(=N)N)o3)o2)c1
Target or system: RXF 393 renal
GI50: 1.93 µM

Compound: O=C1c2c(c3c4ccccc4n(CCCCCCBr)c3c3[nH]c4ccccc4c23)C(=O)N1O
Target or system: RXF 393 renal
GI50: 3.32 µM

Lab note: `CCCCC/C(C=C(C#N)C#N)=C/c1ccccc1` gave GI50 of 5.82 µM

Lab note: `CCc1c(Oc2ccc(C(C)=O)cc2)c2ccccc2[nH]c1=O` gave GI50 of 20.1 µM

====

- System: LOX IMVI melanoma
- Assay notes: NCI tumour cell line growth inhibition, 48 h
Reported TGI values for the following compounds.

Solved entries:
Compound: CC1(C)OCC(COC(=O)C=[N+]=[N-])O1 (centres undefined)
TGI: > 100 µM
--
Compound: CCCCN(CCCC)C(=O)C(=O)C(C#N)c1ccc(C)cc1 (centres undefined)
TGI: > 100 µM
--
Compound: CC(C)(C)c1ccc2c(c1)CNCCNCc1cc(C(C)(C)C)ccc1OCC1(CO2)COc2ccc(C(C)(C)C)cc2CNCCNCc2cc(C(C)(C)C)ccc2OC1
TGI: > 100 µM
--
Compound: CCCc1cc(=O)c2c(C)c3[nH]c4ccc(Cl)cc4c3c(C)c2[nH]1
TGI: 3.33 µM
--
Compound: CN1C(=O)N(c2ccccc2)C2(CCN(CC3COc4ccccc4O3)CC2)C1=O (centres undefined)
TGI: > 100 µM
--
Compound: O=C(NCCOCCOCCNc1cccc2c1C(=O)N(C1CCCNC1=O)C2=O)c1cc2c(o1)C(=O)c1ccccc1C2=O (centres undefined)
TGI: 3 µM
--
Compound: COc1ccc2cc1Oc1ccc(cc1)CC1c3cc(c(OC)cc3CCN1C)Oc1c3c(cc4c1C(C2)N(C)CC4)OCO3 (centres undefined)
TGI: 4.72 µM
--
Compound: C=C(CN1CCc2ccccc2C1)c1ccc(C(=O)Nc2cnccn2)cc1
TGI: > 100 µM

Here is the next item to consider.
Lab note: `COc1ccccc1Nc1nc(N)nc(N)c1N=O` gave TGI of > 100 µM

====

- Tested on: MALME-3M melanoma
- Assay notes: NCI tumour cell line growth inhibition, 48 h; in the data active means GI50 below about 0.43 µM; inactive means the rest
Your reply should match one of these outcome classes. True = active, False = inactive

Answered cases to consult:
Molecule: COc1ccc2c(c1)c(-c1nc(-c3cn(C)c4ncccc34)cs1)cn2CCCN1CCCCC1
Target or system: MALME-3M melanoma
Classification: False
//
Molecule: CSc1ccc(C2=NN(C(C)=O)C(c3cc(C)cs3)C2)cc1 (stereo not drawn)
Target or system: MALME-3M melanoma
Classification: False
//
Molecule: CC1OC(O[C@H]2C[C@@H](O)[C@]3(CO)[C@H]4[C@H](O)C[C@]5(C)[C@@H](C6=CC(=O)OC6)CC[C@]5(O)[C@@H]4CC[C@]3(O)C2)C(O)C(O)C1O (stereo partly drawn)
Target or system: MALME-3M melanoma
Classification: False
//
Molecule: N#Cc1ccc(C#Cc2ccccc2C#CCCCCO)cc1
Target or system: MALME-3M melanoma
Classification: False
//
Molecule: C[C@]12CC[C@H](O)CC1=CC[C@@H]1[C@@H]2CC[C@]2(C)C(c3cccnc3)=CC[C@@H]12
Target or system: MALME-3M melanoma
Classification: False
//
Molecule: CN1CCN(Cc2ccc(NC(=O)c3cncc(C#Cc4cnc(N)c5ccc(C#N)cc45)c3)cc2C(F)(F)F)CC1
Target or system: MALME-3M melanoma
Classification: True
//
Molecule: Nc1ccn(C2O[C@H](CO)[C@@H](O)[C@@H]2O)c(=O)n1 (stereo partly drawn)
Target or system: MALME-3M melanoma
Classification: False

Could you now consider this next molecule?
// outcome(item) with item = `CCNCCNc1cc(-c2ccc(C(=O)OC)cc2)c(C#N)c2nc3ccccc3n12` False

====

- Test system: TK-10 renal
- Assay notes: NCI tumour cell line growth inhibition, 48 h
Reported TGI values for the following compounds.
Output spec: scalar in µM, unitless text.

Solved entries:
Compound: CC(O[Si](c1ccccc1)(c1ccccc1)C(C)(C)C)[C@H](NC(=O)OC(C)(C)C)C(=O)O[Si](c1ccccc1)(c1ccccc1)C(C)(C)C (stereo not given in full)
Readout units: µM
TGI: 31.1
//
Compound: CSc1nc(Cl)c2c(n1)Sc1nc3cc4c(cc3n1C2O)OCCO4 (stereo not given)
Readout units: µM
TGI: 32.9

Lab note: `COc1ccc(/C(=C2\O[C@@H]([C@H]3COC(C)(C)O3)[C@H]3OC(C)(C)O[C@@H]23)c2cc(OC)c(OC)c(OC)c2)cc1O` gave TGI of 61.4

Lab note: `CCN(CC)CCc1c2c(nc3ccccc13)C(=O)c1cccnc1C2=O` gave TGI of 12.6

Lab note: `CN1CCN(Cc2ccc(NC(=O)c3cncc(C#Cc4cnc(N)c5ccc(C#N)cc45)c3)cc2C(F)(F)F)CC1` gave TGI of 1.47

Lab note: C=C1CC(COc2cc(=O)oc3ccccc23)(c2ccccc2)OC1=O (stereo not given) gave TGI of 3.89

Lab note: `Cc1nn(CN2CCN(C)CC2)c(=S)n1/N=C/c1cccc2ccccc12` gave TGI of 50.1

Lab note: `COc1cccc2c(N)c3cccc(C(=O)NCCN(C)C)c3nc12` gave TGI of 6.14

Lab note: `NCC(=O)NS(=O)(=O)OC[C@H]1O[C@@H](n2cnc3c(N)ncnc32)[C@H](O)[C@@H]1O` gave TGI of 5.78

Lab note: `COc1ccc2[nH]c3c(C)c4c(c(C)c3c2c1)CN(C)CC4` gave TGI of 42.9
